- experiment: soluble on expression in E. coli; label from the status in PepcDB or PDB records
property_name: soluble on expression in E. coli

MGGSHHHHHHGMASAVNVYSTSVTSDNLSRHDMLAWINESLQLNLTKIEQLCSGAAYCQFMDMLFPGSIALKKVKFQAKLEHEYIQNFKILQAGFKRMGVDKIIPVDKLVKGKFQDNFEFVQWFKKFFDANYDGKDYDPVAARQGQETAVAPSLVAPALNKPKKPLTSSSAAPQRPISTQRTAAAPKAGPGVVRKNPGVGNGDDEAAELMQQVNVLKLTVEDLEKERDFYFGKLRNIELICQENEGENDPVLQRIVDILYATDEGFVIPDEGGPQEEQEEY ... not soluble
MKHTIGILGGMGPAATADMLEKFVELRHASCDQQHIPLIVSSIPDIPDRTACLLSGGPSPYRYLERYLHMLEDAGAECIVIPCNTAHYWFDDLQNVAKARMISILDATLGDIPPSARHVGLLATNATLATGLYQKKALARGLTLIQPEDAGQALVMQAIYTLKRGDKTAAQALLLPQIDSLIARGAQAIIMGCTEIPLIVAGHERAIACPMIDSTASLVRAAIRWYESWPDTRASLTGEQRLTA ... not soluble

====

- experiment: soluble on expression in E. coli; label from the status in PepcDB or PDB records
property_name: soluble on expression in E. coli

MSLERQEHSPLILLGEDEKFQATIVKDVLERKNFDVRIAPNGKVAYEMFCENRLFQLVIVDVFMPVVDGLRSVKLIRQYESNHQIERCPIIICSGNESIIRSGNNSQDTGGDAFVSKPFRPSLIDLVYKLIGKKEGHHHHHH ... not soluble
MSIIFNQRIEIIRAGEKRSVYSSDVMEDWDNPVVLPVEVPVSIQPVSSTESDATANRSYVTSRFRLFSPPGIDIPQLKAKDRVRIGLLVLDVVGDPARWPHPLKPATVHHVEADLEVHRG ... not soluble
MIDLAPLVRRLAGTPLAEWANGLQAQLDTKMSKGHGDLQRWQSALDALPALQPEKVDLTDSFTLETECDGETRTVLRKALLGLSPWRKGPFNVFGVHIDTEWRSDWKWSRVSPHLDLKGKRVLDVGCGNGYYQWRMLGAGADSVIGVDPNWLFFCQFQAMQRYLPDLPAWHLPFALEDLPANLEGFDTVFSMGVLYHRKSPIDHLLALKDCLVKGGELVMETLVIPGDVHQVLVPEDRYAQMRNVWFLPSVPALELWMRRAGFTDVRCVDVSHTTVEEQRSTEWMRFQSLGDYLDPNDHSKTVEGLPAPMRAVIVGRKP ... not soluble
MGSDKIHHHHHHMQFTINHRTHYLYTDVVNYTIQKLRLTPQDGFGQRVKRWEIRVNGHLQRHDDAYGNAEHLLVLDTPHEEINILATGEVETGLDTPPAHDLLPREIYLRTTALTATDATLRNFAEQFRYDRFTGQILDEMMHAIVDKVPYYRGVTNVNTPAAEAFRSGHGVCQDHAHIFIACCRYLGIPARYVSGYLFTDDGSLMESHAWADACLPSGWISFDVSNRCRTNGVHVRLATGLDYSDACPVSGMRVGGGLETMTVGVHVSQLQSQQ ... not soluble
PLQFHSVHGDNIRISRDGTLARRFESFCRAITFSARPVRINERICVKFAEISNNWNGGIRFGFTSNDPVTLEGTLPKYACPDLTNRPGFWAKALHEQYCEKDNILYYYVNGAGDVIYGINNEEKGVILTGIDTRSLLWTVIDIYGNCTGIEFLDSRIYMYQ ... soluble

"MAADGTYDELERGEKSKLRDDVVDIQKKPFSILFMGVEDYSTNGEHGRTDSLIVVTLDPKKKSMKMLSIPRDTRVHLASDTTGTKTKINAAYAKGGKDETIETVEDFLGIPIDYYATVDFDGFKDVIDEIGGIDVDVPFDFSEKSDVSKSKRIYFKKGNMHLNGEEALAYARMRKQDKRGDFGRNDRQKQILKAALDQISKPQNLAKIDTIAQKASKNIQTNFRITQALALQQIYSGFAGDDIKTLNITGQDLTIANVYYFEPDQQNLENVQNELTHHLYPLEHHHHHH" has a reported soluble on expression in E. coli of soluble

"GPGSMKALVRRFGPEPSVIEECSADQEWEKPCLASTEDTAVAPGDSVKDTRNNLSGSEGLANGRAESSQRAVDVSSFIRLFSVEWCLTEEQQAENSRRLDAFFHPHPAPPSCQPAPLLPSVQTCGETVDPDIWSLPEVSQEELQRWREEKLSLSDRLVWRGRKTIKQVNMRRM" has a reported soluble on expression in E. coli of not soluble

"MCLVQATGGSSTHKLVSAGAEKMIITRPDFVDPPGSKDISITRTARAPKEDKLVIHFCTCRCN" has a reported soluble on expression in E. coli of not soluble

Origin of values: the DeepSol protein solubility set
